Parameter Population Pyknosed Nuclei (%): see the listing below.
Test system: Fibroblast
Experiment: Multiplex assay against human fibroblast
Format: toxicity, cell-based
Details: 24 h, 10 µM, compound concentration 10 uM, replicate 2

# Compound, Unit, Population Pyknosed Nuclei (%)
records = [
    ("CN1CCN2c3ccccc3Cc3ccccc3C2C1.Cl (stereo not given) [MIANSERIN HYDROCHLORIDE]", "%", 20),
    ("CN1CCN(c2ccc(Nc3c4ccccc4nc4ccccc34)cc2)CC1.Cl.Cl.O", "%", 3),
    ("COc1ccc2[nH]c(I)c(CCNC(C)=O)c2c1", "%", 20),
    ("Cl.Cl.OCCOCCN1CCN(C(c2ccccc2)c2ccc(Cl)cc2)CC1 (stereo not given) [HYDROXYZINE HYDROCHLORIDE]", "%", 20),
    ("CCn1c(-c2nc3cc(C(=O)N4CCCC(N)C4)ccc3n2C)cc2ccccc21.Cl (stereo not given)", "%", 23),
]

###

Tested on: HEK-293T
Assay: Multiplex assay against HEK293T
Assay type: toxicity, cell-based
Conditions: human, 24 h, 10 µM, compound concentration 10 uM, replicate 1
Non-standard residues stand in square brackets, D forms with d. Residues, ends and D or L forms follow the SMILES beside them.
Property Measured: Population Fragmented Nuclei (%)

# Compound, Property Measured, Observed Result
measured = [
    ("Nc1nc(-c2ccco2)c2cnn(Cc3ccccc3F)c2n1", "Population Fragmented Nuclei (%)", 11),
    ("CC(C)(O)C(=O)N1CCN(c2ccc(C(F)(F)F)c(C3=C(c4c[nH]c5ccccc45)C(=O)NC3=O)c2)CC1", "Population Fragmented Nuclei (%)", 6),
    ("OCCCNc1cc(-c2ccnc(Nc3cccc(Cl)c3)n2)ccn1", "Population Fragmented Nuclei (%)", 16),
    ("CC(C)C[C@@H]1NC(=O)[C@@H](C(C)C)NC(=O)[C@@H]2CCCN2C(=O)[C@@H](CC(=O)O)NC(=O)[C@@H](Cc2c[nH]c3ccccc23)NC1=O [BQ-123] (cyclo(L[dW][dD]P[dV]))", "Population Fragmented Nuclei (%)", 11),
    ("Cl.Cl.OCCOCCN1CCN(C(c2ccccc2)c2ccc(Cl)cc2)CC1 (stereo not drawn) [HYDROXYZINE HYDROCHLORIDE]", "Population Fragmented Nuclei (%)", 10),
    ("CN1CCN2c3ccccc3Cc3ccccc3C2C1.Cl (stereo not drawn) [MIANSERIN HYDROCHLORIDE]", "Population Fragmented Nuclei (%)", 8),
    ("COc1cc(OC2CCN(C(C)=O)CC2)ccc1C(=O)N1CCC(N2C(=O)OCc3ccccc32)CC1", "Population Fragmented Nuclei (%)", 8),
    ("COc1cc(Nc2ncc3c(n2)-c2ccc(Cl)cc2C(c2c(F)cccc2OC)=NC3)ccc1C(=O)O", "Population Fragmented Nuclei (%)", 8),
]

###

Tested on: Fibroblast
Assay: Multiplex assay against human fibroblast
Format: toxicity, cell-based
Details: 24 h, 1 µM, compound concentration 1 uM, replicate 1
Non-standard residues stand in square brackets, D forms with d. Residues, ends and D or L forms follow the SMILES beside them.

# Compound, Unit, Population Healthy Nuclei (%)
measured = [
    ("C[C@@H]1CC(=O)Nc2cccc(-c3ccc4c(c3)c(-c3cnn(C)c3)nn4C)c2N1", "%", 67),
    ("CCn1c(-c2nc3cc(C(=O)N4CCCC(N)C4)ccc3n2C)cc2ccccc21.Cl (configuration not stated)", "%", 68),
    ("COc1cc(OC2CCN(C(C)=O)CC2)ccc1C(=O)N1CCC(N2C(=O)OCc3ccccc32)CC1", "%", 63),
    ("O=C(NCCNCC(O)COc1ccc(O)cc1)N1CCOCC1.O=C(NCCNCC(O)COc1ccc(O)cc1)N1CCOCC1.O=C(O)/C=C/C(=O)O (configuration not stated) [XAMOTEROL FUMARATE]", "%", 63),
    ("CCCCC[C@H](O)/C=C/[C@H]1[C@H](O)CC(=O)[C@@H]1CCCCCCC(=O)O", "%", 73),
    ("Cc1c(Cc2ccc3ccccc3n2)c2cc(F)ccc2n1CC(=O)O", "%", 73),
    ("CC(C)(O)C(=O)N1CCN(c2ccc(C(F)(F)F)c(C3=C(c4c[nH]c5ccccc45)C(=O)NC3=O)c2)CC1", "%", 61),
    ("CC(C)C[C@@H]1NC(=O)[C@@H](C(C)C)NC(=O)[C@@H]2CCCN2C(=O)[C@@H](CC(=O)O)NC(=O)[C@@H](Cc2c[nH]c3ccccc23)NC1=O [BQ-123] (cyclo(L[dW][dD]P[dV]))", "%", 66),
    ("CC(F)(F)CN1CCOc2c(nn(-c3ccccc3Cl)c2-c2ccc(Cl)cc2)C1=O", "%", 65),
    ("CN1C[C@H](C(=O)N[C@]2(C)O[C@@]3(O)[C@@H]4CCCN4C(=O)[C@H](Cc4ccccc4)N3C2=O)C[C@@H]2c3cccc4[nH]cc(c34)C[C@H]21.CS(=O)(=O)O [DIHYDROERGOTAMINE MESYLATE]", "%", 75),
    ("S=C(NCCCc1c[nH]cn1)NCCCN(Cc1ccc(Cl)c(Cl)c1)c1ccc(Br)cn1", "%", 74),
    ("N[C@](CC1c2ccccc2Oc2ccccc21)(C(=O)O)[C@H]1C[C@@H]1C(=O)O", "%", 73),
    ("Cc1ccc(OCC(O)C(C)NC(C)C)c2c1CCC2.Cl (configuration not stated)", "%", 74),
    ("COc1c(Nc2ccc(S(C)(=O)=O)nc2C)ncnc1OC1CCN(C(=O)OC(C)C)CC1", "%", 67),
    ("CSc1nc(NC2CCCC2)c([N+](=O)[O-])c(NC2CCCC2)n1", "%", 69),
    ("Nc1nc(-c2ccco2)c2cnn(Cc3ccccc3F)c2n1", "%", 82),
    ("COc1ccc2[nH]c(I)c(CCNC(C)=O)c2c1", "%", 63),
]
